System: Amaranthus rudis (AMATA), tall water hemp
Experiment: Postemergence herbicide evaluation, growth of Amaranthus rudis (AMATA)
Type: in vivo
Settings: Amaranthus tuberculatus, post-emergence, 168 h, 560 g ae/ha, 7 DAA; read-out: Ave. AMATA, percent reduction in plant size relative to the untreated control
EXPERIMENTAL ENDPOINT: pest or weed control at 560 g/ha (%)
Numbers only, in %.

compound=O=C(COc1ccc(Cl)cc1Cl)O/N=C/c1ccccc1 number=75

Please state pest or weed control at 560 g/ha for every compound in the list that follows.
1. O=C(COc1ccc(Cl)cc1Cl)O/N=C/c1ccncc1
2. O=C(COc1ccc(Cl)cc1Cl)O/N=C/c1cccnc1
3. O=C(COc1ccc(Cl)cc1Cl)Nc1nccs1
4. CC(C)ONC(=O)COc1ccc(Cl)cc1Cl
5. O=C(COc1ccc(Cl)cc1Cl)Oc1cccnn1 [Compound E2]
6. COc1ccc(/C=N/OC(=O)COc2ccc(Cl)cc2Cl)cc1

-- reply
94
91
85
82.5
73
75

Please state pest or weed control at 560 g/ha for every compound in the list that follows.
1. C/C(=N\OC(=O)COc1ccc(Cl)cc1Cl)c1ccccc1
2. O=C(COc1ccc(Cl)cc1Cl)Nc1ccon1 [Compound D2]

-- reply
[78, 78]
